From: ChEMBL document CHEMBL1143644

# experiment notes: Area under curve at normal dose was determined
# Type: ADME
measurement type: AUC (µM·h)

> print(dat)
                                 mol.smiles  test.value
1  CC(C)(C)c1ccc(-n2c(C(=O)O)c(Oc3cccc(C(F)(F)F)c3)c3ccccc32)cc1        9.19
2  CC(C)(C)c1ccc(-n2c(C(=O)O)c(Oc3cccc(C(F)(F)F)c3)c3cc(Oc4cc(Cl)c[nH]4)ccc32)cc1         0.3

---

For Peroxisome proliferator-activated receptor gamma (Homo sapiens), measured IC50 is reported for the entries below.
measurement type: IC50

> print(dat)
                                 mol.smiles  test.value
1  CC(C)(C)c1ccc(-n2c(C(=O)O)c(Oc3cccc(C(F)(F)F)c3)c3cc(Cl)ccc32)cc1       17 nM
2  CC(C)(C)c1ccc(-n2c(C(=O)O)c(Oc3cccc(C(F)(F)F)c3)c3ccc(Cl)cc32)cc1       27 nM
3  CC(C)c1cccc(-n2c(C(=O)O)c(Oc3ccc(C(F)(F)F)cc3)c3ccccc32)c1      120 nM
4  CC(C)c1cccc(Oc2c(C(=O)O)n(-c3ccc(C(C)(C)C)cc3)c3cc(Cl)ccc23)c1       19 nM

---

Each entry below carries its recorded pIC50.
# experimental target: Peroxisome proliferator-activated receptor gamma (Homo sapiens, UniProt P37231)
# Sequence (P37231 whole entry): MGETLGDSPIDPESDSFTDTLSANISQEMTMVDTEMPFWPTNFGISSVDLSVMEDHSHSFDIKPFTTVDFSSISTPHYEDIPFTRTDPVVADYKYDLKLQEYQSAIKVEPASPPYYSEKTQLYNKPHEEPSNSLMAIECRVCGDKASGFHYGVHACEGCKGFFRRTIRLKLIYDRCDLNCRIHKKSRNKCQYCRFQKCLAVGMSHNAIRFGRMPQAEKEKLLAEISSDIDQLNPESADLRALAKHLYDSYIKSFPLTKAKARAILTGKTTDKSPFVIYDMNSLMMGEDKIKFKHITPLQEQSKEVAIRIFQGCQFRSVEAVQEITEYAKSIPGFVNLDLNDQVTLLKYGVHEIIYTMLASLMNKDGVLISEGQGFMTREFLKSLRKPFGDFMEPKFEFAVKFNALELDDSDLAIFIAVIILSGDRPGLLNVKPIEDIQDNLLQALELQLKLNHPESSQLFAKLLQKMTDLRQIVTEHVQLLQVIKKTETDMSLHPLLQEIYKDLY
pIC50: −log10 of the molar value.
measurement type: pIC50

> print(dat)
                                 mol.smiles  measurement.type  test.value
1  CC(C)(C)c1ccc(-n2c(C(=O)O)c(Oc3cccc(C(F)(F)F)c3)c3cc(O)ccc32)cc1             pIC50        6.50
2  CC(C)(C)c1ccc(-n2c(C(=O)O)c(Oc3cc(C(F)(F)F)cc(C(F)(F)F)c3)c3cc(Cl)ccc32)cc1             pIC50        7.08
3  COc1ccc(-n2c(C(=O)O)c(Oc3cccc(C(F)(F)F)c3)c3ccccc32)cc1             pIC50        6.94
4  CC(C)(C)c1ccc(-n2c(C(=O)O)c(Oc3cccc(C(F)(F)F)c3)c3ccccc32)cc1             pIC50        7.92

---

# experimental target: Peroxisome proliferator-activated receptor gamma (Homo sapiens)
# experiment notes: Effective agonist concentration for human PPAR gamma Gal4 construct in transactivation assay
measurement type: EC50 (nM)

> print(dat)
                                  mol.smiles  measurement.type  test.value
 1  CC(C)(C)c1ccc(-n2c(C(=O)O)c(Oc3cccc(O)c3)c3ccccc32)cc1              EC50         161
 2  CC(C)(C)c1ccc(-n2c(C(=O)O)c(Oc3cccc(C(F)(F)F)c3)c3cc(Oc4cc(C(F)(F)F)ccn4)ccc32)cc1              EC50           6
 3  CC(C)COc1ccc2c(c1)c(Oc1cccc(C(F)(F)F)c1)c(C(=O)O)n2-c1ccc(C(C)(C)C)cc1              EC50          91
 4  CC(C)(C)c1ccc(-n2c(C(=O)O)c(Oc3ccc(-c4cc(C(F)(F)F)c[nH]4)cc3)c3cccnc32)cc1              EC50          34
 5  CC(C)(C)c1ccc(-n2c(C(=O)O)c(Oc3cccc(-c4cc(C(F)(F)F)c[nH]4)c3)c3ccc(Cl)nc32)cc1              EC50          95
 6  CC(C)(C)c1ccc(-n2c(C(=O)O)c(Oc3cccc(C(F)(F)F)c3)c3cccnc32)cc1              EC50         464
 7  CCOc1ccc2c(c1)c(Oc1cccc(C(F)(F)F)c1)c(C(=O)O)n2-c1ccc(C(C)(C)C)cc1              EC50          34
 8  CC(C)(C)c1ccc(-n2c(C(=O)O)c(Oc3cccc(C(F)(F)F)c3)c3ccc(Cl)nc32)cc1              EC50         176
 9  COc1ccc(-n2c(C(=O)O)c(Oc3cccc(C(F)(F)F)c3)c3ccccc32)cc1              EC50         334
10  COc1cccc(Oc2c(C(=O)O)n(-c3ccc(C(C)(C)C)cc3)c3nc(Cl)ccc23)c1              EC50         755

---

# experimental target: Peroxisome proliferator-activated receptor gamma (Homo sapiens, UniProt P37231)
measurement type: IC50 (nM)

> print(dat)
                                 mol.smiles  test.value
1  COc1ccc2c(c1)c(Oc1cccc(C(F)(F)F)c1)c(C(=O)O)n2-c1ccc(C(C)(C)C)cc1          39
2  COc1ccc2c(Oc3cccc(C(F)(F)F)c3)c(C(=O)O)n(-c3ccc(C(C)(C)C)cc3)c2n1         100
3  CC(C)(C)c1ccc(-n2c(C(=O)O)c(Oc3ccc(OC(F)(F)F)cc3)c3ccccc32)cc1          49
4  CC(C)(C)c1ccc(-n2c(C(=O)O)c(Oc3cccc(S(C)(=O)=O)c3)c3ccc(Cl)nc32)cc1         202

---

For Peroxisome proliferator-activated receptor gamma (Homo sapiens, UniProt P37231), measured pIC50 is reported for the entries below.
pIC50: −log10 of the molar value.
measurement type: pIC50

> print(dat)
                                 mol.smiles                       experimental.target  measurement.type  test.value
1  CC(C)(C)c1ccc(-n2c(C(=O)O)c(Oc3cccc(O)c3)c3ccccc32)cc1  Peroxisome proliferator-activated receptor gamma (Homo sapiens, UniProt P37231)             pIC50        7.11
2  CC(C)(C)c1ccc(-n2c(C(=O)O)c(Oc3ccc(Cl)c(C(F)(F)F)c3)c3cc(Cl)ccc32)cc1  Peroxisome proliferator-activated receptor gamma (Homo sapiens, UniProt P37231)             pIC50        7.89
3  CC(C)(C)c1ccc(-n2c(C(=O)O)c(Oc3cccc(C(F)(F)F)c3)c3cc(Oc4cc(Cl)c[nH]4)ccc32)cc1  Peroxisome proliferator-activated receptor gamma (Homo sapiens, UniProt P37231)             pIC50        8.70
4  CC(C)(C)c1ccc(-n2c(C(=O)O)c(Oc3ccc(Cl)cc3)c3ccc(OC(F)(F)F)cc32)cc1  Peroxisome proliferator-activated receptor gamma (Homo sapiens, UniProt P37231)             pIC50        6.53

---

pIC50: −log10 of the molar value.
For Peroxisome proliferator-activated receptor gamma (Homo sapiens, UniProt P37231), measured pIC50 is reported for the entries below.
measurement type: pIC50

> print(dat)
                                 mol.smiles  test.value
1  CC(C)COc1ccc2c(c1)c(Oc1cccc(C(F)(F)F)c1)c(C(=O)O)n2-c1ccc(C(C)(C)C)cc1        7.74
2  CC(C)(C)c1ccc(-n2c(C(=O)O)c(Oc3cccc(C(F)(F)F)c3)c3cccnc32)cc1        7.12
3  CCOc1cccc(Oc2c(C(=O)O)n(-c3ccc(C(C)(C)C)cc3)c3ccccc23)c1        7.31
4  CC(C)c1cccc(-n2c(C(=O)O)c(Oc3cccc(O)c3)c3ccccc32)c1        6.99
5  CC(C)(C)c1ccc(-n2c(C(=O)O)c(Oc3ccc(-c4cc(C(F)(F)F)c[nH]4)cc3)c3cccnc32)cc1        6.60
6  COc1cccc(Oc2c(C(=O)O)n(-c3ccc(C(C)(C)C)cc3)c3nc(Cl)ccc23)c1        6.98
7  O=C(O)c1c(Oc2cccc(C(F)(F)F)c2)c2ccccc2n1-c1ccc(C(F)(F)F)cc1        6.97

---

# experimental target: Peroxisome proliferator-activated receptor gamma (Homo sapiens, UniProt P37231)
pIC50: −log10 of the molar value.
Each entry below carries its recorded pIC50.
measurement type: pIC50

> print(dat)
                                 mol.smiles  test.value
1  CCOc1ccc2c(c1)c(Oc1cccc(C(F)(F)F)c1)c(C(=O)O)n2-c1ccc(C(C)(C)C)cc1        7.74
2  CC(C)(C)c1ccc(-n2c(C(=O)O)c(Oc3cccc(C(F)(F)F)c3)c3ccc(Cl)nc32)cc1        7.68
3  CC(C)(C)c1ccc(-n2c(C(=O)O)c(Oc3cccc(-c4cc(C(F)(F)F)c[nH]4)c3)c3ccc(Cl)nc32)cc1        7.24
4  CC(C)c1cccc(-n2c(C(=O)O)c(Oc3cccc(C(F)(F)F)c3)c3ccccc32)c1        7.22
